Values from ChEMBL document CHEMBL1156597

System: LNCaP
Assay: Cytotoxicity against human LNcaP cells after 48 hrs by SRB assay
Type: functional
readout_type: GI50 (nM)
One number for each entry, in nM.

Worked cases, GI50 given:
smiles_record | GI50 / nM
C/C=C1\NC(=O)[C@H](Cc2ccccc2)NC(=O)[C@@H](C(C)C)NC(=O)[C@@H]([C@H](C)CC)NC(=O)[C@H](NC(=O)[C@H](NC(=O)[C@H](CCCN)NC(=O)[C@H]2CCCN2C(=O)[C@H](NC(=O)CNC(=O)[C@@H](NC(=O)[C@H](NC(=O)CCCC(C)C)C(C)C)[C@@H](C)O)C(C)C)[C@H](C)CC)[C@H](C)OC(=O)[C@H](C(C)C)NC1=O | 3050
C/C=C1\NC(=O)[C@H](Cc2ccccc2)NC(=O)[C@@H](C(C)C)NC(=O)[C@@H]([C@H](C)CC)NC(=O)[C@H](NC(=O)[C@H](NC(=O)[C@H](CCCN)NC(=O)[C@H]2CCCN2C(=O)[C@H](NC(=O)[C@H](CC(C)C)NC(=O)[C@@H](NC(=O)[C@H](NC(=O)CCCC(C)C)C(C)C)[C@@H](C)O)C(C)C)[C@H](C)CC)[C@H](C)OC(=O)[C@H](C(C)C)NC1=O | 1030

Exercise: # input compound: C/C=C1\NC(=O)[C@H](Cc2ccccc2)NC(=O)[C@@H](C(C)C)NC(=O)[C@@H]([C@H](C)CC)NC(=O)[C@H](NC(=O)[C@H](NC(=O)[C@H](CCCN)NC(=O)[C@H]2CCCN2C(=O)[C@H](NC(=O)[C@H](CCCN)NC(=O)[C@@H](NC(=O)[C@H](NC(=O)CCCC(C)C)C(C)C)[C@@H](C)O)C(C)C)[C@H](C)CC)[C@H](C)OC(=O)[C@H](C(C)C)NC1=O ; wanted: its GI50
Solution: 1760

###

Record form. Attribute: CC50. Fill in for each entry.
Test system: DU-145
Experiment: Cytotoxicity against human DU145 cells after 48 hrs by SRB assay
Assay type: functional, cell-based
Details: Homo sapiens, DU-145, 48 h; read-out: LC50 (the source's name)
One number for each entry, in µM.

smiles_record | readout_type | quantitative_result
C/C=C1\NC(=O)[C@H](Cc2ccccc2)NC(=O)[C@@H](C(C)C)NC(=O)[C@@H]([C@H](C)CC)NC(=O)[C@H](NC(=O)[C@H](NC(=O)[C@H](CCCN)NC(=O)[C@H]2CCCN2C(=O)[C@H](NC(=O)[C@H](CCC2CCCCC2)NC(=O)[C@@H](NC(=O)[C@@H](CC2CCCCC2)NC(=O)CCCC(C)C)[C@@H](C)O)C(C)C)[C@H](C)CC)[C@H](C)OC(=O)[C@H](C(C)C)NC1=O | CC50 | 1.35

Exercise: Given the entry C/C=C1\NC(=O)[C@H](Cc2ccccc2)NC(=O)[C@@H](C(C)C)NC(=O)[C@@H]([C@H](C)CC)NC(=O)[C@H](NC(=O)[C@H](NC(=O)[C@H](CCCN)NC(=O)[C@H]2CCCN2C(=O)[C@H](NC(=O)[C@@H](NC(=O)[C@@H](NC(=O)[C@H](NC(=O)CCCC(C)C)C(C)C)[C@@H](C)O)C(C)C)C(C)C)[C@H](C)CC)COC(=O)[C@H](C(C)C)NC1=O , what CC50 was observed with DU-145?
Solution: 5.37
